target: full length active recombinant SYK enzyme (Homo sapiens); construct: full length active recombinant SYK enzyme (Millipore, Calif.); purchased Millipore; assay: Inhibition of Syk tyrosine phosphorylation activity (LANCE TR-FRET); format: biochemical; conditions: Table 3; 1 nM SYK, 100 μM ATP; read-out: Syk IC50 code
value.kind: IC50

Sample answers from the record:
>>> print(df.to_string())
                           substance_smiles  value_measured
0  O=C1CCc2cc(Nc3nc(NC4CC4)c4c(-c5ccncc5)c[nH]c4n3)ccc2N1  0.01 to 0.1 µM
1  Nc1nc(Nc2ccc(C(=O)O)cc2)nc2[nH]cc(-c3ccncc3)c12          > 1 µM

Please indicate IC50 recorded for `CC(=O)N1CCN(c2ccc(Nc3nc(N4CCC(CN)CC4)c4nc[nH]c4n3)cc2)CC1`
0.01 to 0.1 µM

Please indicate IC50 recorded for `O=C1CCc2cc(Nc3ncc(F)c(N4CCC(CO)CC4)n3)ccc2N1`
0.1 to 1 µM

Please indicate IC50 recorded for `NCCOCCNc1nc(Nc2ccc3cn[nH]c3c2)nc2[nH]ccc12`
0.01 to 0.1 µM

Please indicate IC50 recorded for `CN(C)CCCNC(=O)c1ccc(Nc2nc(NC3CCC3)c3cc[nH]c3n2)cc1`
0.1 to 1 µM

Please indicate IC50 recorded for `O=S(=O)(c1ccc(Nc2nc(NC3CCC3)c3cc[nH]c3n2)cc1)N1CCC(O)CC1`
0.01 to 0.1 µM

Please indicate IC50 recorded for `NCC1CCN(c2nc(Nc3ccc4c(c3)CCC(=O)N4)ncc2Br)CC1`
0.01 to 0.1 µM
